biological target: Sigma intracellular receptor 2 (Homo sapiens, UniProt Q5BJF2); assay: Displacement of […] from human recombinant sigma2 receptor expressed in HEKT cells after 90 mins by microbeta scintillation counting method; type: cell-based
Sequence (Q5BJF2 whole entry): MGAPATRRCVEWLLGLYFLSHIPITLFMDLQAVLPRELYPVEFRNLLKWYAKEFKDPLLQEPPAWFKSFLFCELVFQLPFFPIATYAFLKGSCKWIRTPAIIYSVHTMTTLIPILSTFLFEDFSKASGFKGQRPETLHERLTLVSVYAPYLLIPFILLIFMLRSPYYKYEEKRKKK
MEASUREMENT_NAME: pKi
The read-out pKi is expressed as -log10 of concentration in moles per litre.

I have this molecule here, CC[C@H]1c2ccccc2N(c2ccccc2)C[C@@]1(C)N (racemic) , and I need its recorded pKi.
6.20

Any idea what its pKi is? The molecule is C[C@@]12COc3cc(OCc4ccccc4)ccc3[C@@H]1CCN2 (racemic)
7.00

// lookup pKi for C[C@@]12COc3c(Br)cccc3[C@@H]1CCN2 (racemic)
6.20

----------
Field: Ki. Provide a value for each of the molecules that follow.
Target: D(4) dopamine receptor (Homo sapiens, UniProt P21917)
Sequence (P21917 whole entry): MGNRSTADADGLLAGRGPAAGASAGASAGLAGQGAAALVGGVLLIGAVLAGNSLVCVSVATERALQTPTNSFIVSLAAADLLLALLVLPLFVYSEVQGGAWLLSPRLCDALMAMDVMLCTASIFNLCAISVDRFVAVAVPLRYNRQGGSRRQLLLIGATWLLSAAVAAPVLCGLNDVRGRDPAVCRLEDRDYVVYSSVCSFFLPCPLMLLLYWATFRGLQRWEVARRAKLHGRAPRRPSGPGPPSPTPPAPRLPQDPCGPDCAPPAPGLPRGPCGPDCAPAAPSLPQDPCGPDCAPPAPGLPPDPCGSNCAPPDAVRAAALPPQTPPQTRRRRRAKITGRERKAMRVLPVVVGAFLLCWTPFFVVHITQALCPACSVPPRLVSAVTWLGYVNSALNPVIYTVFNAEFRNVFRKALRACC
Experiment: Displacement of [3H]-methylspiperone from human recombinant dopamine D4 receptor expressed in Stable HEK cells after 90 mins by microbeta scintillation counting method

Under D(4) dopamine receptor (Homo sapiens, UniProt P21917): Ki value of CC[C@H]1c2cc(OC)ccc2CC[C@@]1(C)N (racemic) ?
> 10 µM

API: value(readout= Ki, system= D(4) dopamine receptor (Homo sapiens, UniProt P21917), query= CC[C@H]1c2cc(C)ccc2OC[C@@]1(C)N (racemic) )
> 10 µM

Form: Entry = COc1cc(OC)c2c(c1)OC[C@@]1(C)NCC[C@@H]21 (racemic) | System = D(4) dopamine receptor (Homo sapiens, UniProt P21917) | Ki = ____
> 10 µM

# returns recorded Ki (system: D(4) dopamine receptor (Homo sapiens, UniProt P21917)) for C[C@@]12CN(c3ccccc3)c3ccccc3[C@@H]1CCN2 (racemic)
> 10 µM

What measured Ki is associated with CC[C@H]1c2ccccc2N(c2ccccc2)C[C@@]1(C)N (racemic) on D(4) dopamine receptor (Homo sapiens, UniProt P21917)?
2 µM

----------
For each entry below, report its Ki value.
biological target: Mu-type opioid receptor (Homo sapiens); assay: Displacement of [3H]-DAMGO from human recombinant MOR receptor expressed in stable HEK cells after 90 mins by microbeta scintillation counting method
Sequence (P35372 whole entry): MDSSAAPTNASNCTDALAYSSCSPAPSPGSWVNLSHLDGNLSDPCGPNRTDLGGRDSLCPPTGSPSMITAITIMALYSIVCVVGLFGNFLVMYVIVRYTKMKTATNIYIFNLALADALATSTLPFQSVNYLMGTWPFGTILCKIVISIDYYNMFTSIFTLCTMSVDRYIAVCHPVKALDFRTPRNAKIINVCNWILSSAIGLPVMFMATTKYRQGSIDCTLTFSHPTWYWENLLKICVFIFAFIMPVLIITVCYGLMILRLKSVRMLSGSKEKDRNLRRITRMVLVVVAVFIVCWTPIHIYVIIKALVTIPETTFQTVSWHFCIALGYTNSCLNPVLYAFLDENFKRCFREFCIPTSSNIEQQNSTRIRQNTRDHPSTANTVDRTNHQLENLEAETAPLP

Recorded Ki for CC[C@H]1c2cc(OC)ccc2CC[C@@]1(C)N (racemic) , please?
2 µM

What value of Ki has been reported for the following compound? CC[C@H]1c2ccccc2N(c2ccccc2)C[C@@]1(C)N (racemic)
> 10 µM

Entry under review: COc1cc(OC)c2c(c1)OC[C@@]1(C)NCC[C@@H]21 (racemic) . Reported Ki?
> 10 µM

So what does the record say about Ki for C[C@@]12CN(c3ccccc3)c3ccccc3[C@@H]1CCN2 (racemic) ?
> 10 µM

What does the data say about its Ki? Entry: CC[C@H]1c2cc(C)ccc2OC[C@@]1(C)N (racemic)
> 10 µM
